- Tested on: human colorectal carcinoma (HCT-116)
- METHOD SUMMARY: MTT cytotoxicity assay, HCT-116
- Assay type: cell-based
- RECORDED CONDITIONS: 48 h, mean ± SD
MEASURED PARAMETER: IC50 (µM)

| COMPOUND | MEASURED PARAMETER | UNITS SYMBOL | NUMERIC READOUT |
| --- | --- | --- | --- |
| COc1ccc(Nc2n[nH]c(N=C3C(=O)N(C)c4ccccc43)c2C(=O)Nc2ccc(C)cc2)cc1 | IC50 | µM | 39.9 |
| COc1cccc2c1C(=O)c1c(O)c3c(c(O)c1C2=O)C[C@@](O)(C(=O)CO)C[C@@H]3O[C@H]1C[C@H](N)[C@H](O)[C@H](C)O1 [doxorubicin, reference compound] | IC50 | µM | 40 |
| COc1ccc(Nc2n[nH]c(N=C3C(=O)N(C)c4ccccc43)c2C(N)=O)cc1 | IC50 | µM | 39.5 |
| CCN1C(=O)C(=Nc2[nH]nc(Nc3ccc(OC)cc3)c2C(=O)Nc2ccc(C)cc2)c2ccccc21 | IC50 | µM | 38.9 |
